experiment: physchem; conditions: pH 7.4, […]
property-name: logD

• Nc1ccc(S(=O)(=O)Nc2ncccn2)cc1 = -0.8

Every entry's value here was drawn from paper PMC11779965.
